meta.source: PubChem BioAssay (NCI)

# Test system: OVCAR-3 ovarian
# Assay: NCI tumour cell line growth inhibition, 48 h
Quantity Name: TGI (µM)
Answer with a number only, understood to be in µM.

Some compounds with recorded TGI:
Mol	Quantity Name	Measured Result
O=C1C(=C2C(=O)c3ccccc3[N+]2=O)N([O-])c2ccccc21	TGI	39.7
COc1cccc(-c2cc(-c3ccc(Nc4nc(Nc5ccc(Cl)cc5)nc(Nc5ccc(Cl)cc5)n4)cc3)nc(N)c2C#N)c1	TGI	3.53
C=C1C(=O)O[C@H]2[C@H]1CC/C(COC(=O)NCc1ccc(Cn3c(=O)sn(CCCI)c3=O)cc1)=C\CC[C@@]1(C)O[C@@H]21	TGI	2.43

### Prompt Fill in the recorded TGI for this compound, with OVCAR-3 ovarian as test system: CCN(CC)CCN1C(=O)c2cccc3cc(N)cc(c23)C1=O
### Response 44.3

###

# Tested on: NCI-H460 lung
# Assay: NCI tumour cell line growth inhibition, 48 h
Quantity Name: TGI

Compound	TGI
CC(=O)Nc1ccc2c3c(cc(O)c2c1)N(C(=O)CCCCCCC(=O)Nc1ccc2c4c(cc(O)c2c1)N(C(=O)OC(C)(C)C)CC4CCl)CC3CCl (stereo not drawn)	0.245 µM
Nc1ncnc2c1ncn2C1SC(CO)C(O)C1O (stereo not drawn)	37.9 µM
CCOc1ccc(-c2nc3ccc(-c4nc5ccc(N6CCN(C)CC6)cc5[nH]4)cc3[nH]2)cc1OCC	10.4 µM
Cc1nnc(NS(=O)(=O)c2ccc(N=Nc3c(O)c(C(=O)O)cc4ccccc34)cc2)s1	> 100 µM
COc1ccc2c(c1)OCC1c3cc(OC)ccc3OC21 (stereo not drawn)	> 100 µM
BrC(/C=N/Nc1nnc(-c2ccccc2)c(-c2ccccc2)n1)C(Br)c1ccccc1 (stereo not drawn)	> 100 µM

### Prompt Please look up its TGI: CC1CC(=O)C(CC(=O)O)[C@H]1C(C(=O)C(=O)Nc1cc(Cl)ccc1Cl)[N+](=O)[O-] (stereo partly drawn)
### Response > 100 µM

### Prompt And then O=P(c1ccccc1)(c1ccccc1)C1CC=C2CCCCCC2C1 (stereo not drawn) , what is it?
### Response > 100 µM

### Prompt Consider next the compound COC(=O)[C@]1(CCC(C)=O)C(=O)C=CN([C@H](C)c2ccccc2)[C@@H]1Cc1ccc(OC)c(OCc2ccccc2)c1I in the same way.
### Response 30.7 µM

### Prompt Same lookup for C=C(C)[C@@H]1CC[C@]2(C(=O)OC)CC[C@]3(C)[C@H](CC[C@@H]4[C@@]5(C)CC/C(=N\OCCC(=NCCC#N)NOCCC#N)C(C)(C)[C@@H]5CC[C@]43C)[C@@H]12 , please.
### Response > 50 µM

### Prompt // next record CCc1c(N=[N+]=[N-])c2ccccc2oc1=O
### Response > 100 µM

### Prompt // same read-out, input: CC(C)CC(=O)O[C@H]1C(=O)O[C@@H]2C[C@H]3[C@H](C)C(=O)C(O[C@@H]4O[C@H](CO)[C@@H](O)[C@H](O)[C@H]4O)=C[C@]3(C)[C@H]3[C@@H](O)[C@H](O)[C@]4(C(=O)O)OC[C@]32[C@@H]14
### Response > 100 µM

### Prompt Ok, now CCOC(=O)/C(C#N)=c1/s/c(=C(\O)N/N=C/c2ccc(OC)cc2)c(=N)n1-c1ccccc1
### Response > 100 µM

###

# Tested on: DMS 273 small cell lung
# Assay: NCI tumour cell line growth inhibition, 48 h
Consider the following compounds and their measured TGI readings.

Compound	Measured Result
Cc1cc(Br)ccc1N=NC1C(=O)ON=C1c1ccccc1 (stereo unspecified)	> 100 µM
CCCCCCCCCCCCOC(=N)N1CCOCC1	25.1 µM
COc1cc(/C=C(\C#N)C(=O)c2ccccc2)cc(OC)c1OC	> 100 µM
CCC[CH2][Sn]1([CH2]CCC)[O]C(=O)c2cccnc2[S]1	13.7 µM
C[C@H](O)CCC(=O)c1ccoc1	> 100 µM

### Prompt # value lookup — system DMS 273 small cell lung, readout TGI, item O=C(NC(=Nc1ccccc1)SCCSC(=Nc1ccccc1)NC(=O)c1ccccc1)c1ccccc1
### Response > 100 µM

###

# System: SF-539 CNS
# Assay: NCI tumour cell line growth inhibition, 48 h
Collected GI50 values appear next to each entry.

Molecule	GI50
CC/C(=C\c1ccc(N(C)C)cc1)c1ccncc1	7.35 µM
COc1cc2nc(NC3CCC3)nc(NC3CCN(C(C)C)CC3)c2cc1OC	1.81 µM
COc1cc(/C=C2\C(=O)Nc3ccc(O)cc32)cc(OC)c1OC	5.86 µM
CC(C)c1c(C(=O)Nc2ccccc2)c(-c2ccccc2)c(-c2ccc(F)cc2)n1CC[C@@H](O)C[C@@H](O)CC(=O)O	25.6 µM
COC(=O)[C@@H](C)C[C@H](Cc1ccccc1)NC(=O)c1nc([C@@H](C[C@H](C(C)C)N(C)C(=O)[C@@H](NC(=O)[C@H]2CC(=O)CCN2C)C(C)C)OC(C)=O)sc1C(C)C	0.345 µM
COc1ccc(-c2cc(-c3ccc(Cl)cc3)c(C#N)c(=O)n2CCCCCC(=O)Nc2ccccc2N)cc1	9.29 µM
N#CCC1CCN(c2nc(Nc3ccc(N4CCC(O)CC4)cc3)c3c(=O)[nH]ncc3n2)CC1	0.869 µM
CC(C)OC(=O)OCOP(=O)(OCOC(=O)OC(C)C)C1CCCN(O)C1=O (centres undefined)	5.79 µM

Kindly consider the entry below.
### Prompt Record request: GI50 value, item FC(F)(F)c1ccc(-c2cnc(-c3nn[nH]n3)nc2NC2CCCCCC2)cc1
### Response > 10 µM

###

# maps each entry to its TGI
# System: HCT-15 colon
# Assay: NCI tumour cell line growth inhibition, 48 h

Examples with their reported TGI follow.
Compound	TGI
O=C(N=Nc1c(O)[nH]c2c(Cl)cc(Cl)cc12)C(=O)Nc1cccc(C(F)(F)F)c1	> 100 µM
O=P(c1ccccc1)(c1ccccc1)C1CC=C2CCCCCC2C1 (stereo unspecified)	> 100 µM
CC1=C(C(N)=O)C(c2ccncc2)C(C#N)C(=O)N1 (stereo unspecified)	> 100 µM

### Prompt Entry O=C(O)c1ccc2nc(-c3ccccn3)c(-c3ccccn3)nc2c1 has what TGI?
### Response > 100 µM

### Prompt Also, N=C(N)c1ccc(-c2ccc(-c3cccs3)s2)cc1F please.
### Response 2.09 µM

### Prompt And for COCc1nc(C#N)c(N)o1 ?
### Response > 10 µM

###

# key: entry, value: TGI
# System: SF-268 CNS
# Assay: NCI tumour cell line growth inhibition, 48 h
Write it as a number; the unit µM goes unstated.

Mol	TGI / µM
Cn1c2ccccc2n2c3ccccc3c3nnc(N)c-3c12	3.68

API: the following record is the query input.
### Prompt Fill blank: measured TGI of the molecule O[C@@H]1CCCCN1Cc1cc2cc3c(cc2c2cc(OCc4ccccc4)ccc12)OCO3 is ____.
### Response 2.61

###

// GI50 lookup, one value per entry
# Tested on: OVCAR-4 ovarian
# Assay: NCI tumour cell line growth inhibition, 48 h

Recorded GI50, per entry:
Mol	GI50
C=C1C(=O)O[C@H]2[C@H]1CC/C(COC(=O)NCc1ccc(Cn3c(=O)sn(CCCI)c3=O)cc1)=C\CC[C@@]1(C)O[C@@H]21	1460 nM
COc1cc(-c2nn(-c3cccc(NC(=O)NCCNC(=O)c4ccccc4)c3)cc2-c2ccncc2)ccc1Cl	3030 nM
O=C(c1ccco1)c1c(C(F)(F)F)n([O-])c2cc(Cl)c(Cl)cc2[n+]1=O	4170 nM

// moving on: another record for GI50
### Prompt What GI50 appears in the records for this compound with OVCAR-4 ovarian? CCOc1ccc(-c2nc3ccc(-c4nc5ccc(N6CCN(C)CC6)cc5[nH]4)cc3[nH]2)cc1OCC
### Response 2190 nM

###

# System: U251 CNS
# Assay: NCI tumour cell line growth inhibition, 48 h
Each entry below carries its recorded TGI.
Just the number in µM, nothing appended.

Completed entries (count: 2):
Compound	TGI (µM)
COc1cc(/C=C2\C(=O)Nc3ccc(O)cc32)cc(OC)c1OC	16.8
CC(C)C1CC(CO)(CNc2nc(N)nc(Cl)c2C=O)C1 (stereo unspecified)	10.6

Consider the record given below.
### Prompt // returns reported TGI for input Cc1ccc(CNc2ccc(Cl)cc2NCc2ccc(C)c(O)c2)cc1O
### Response 14.2

###

# TGI per record follows
# Tested on: SK-MEL-2 melanoma
# Assay: NCI tumour cell line growth inhibition, 48 h
# unit: µM | format: bare number

Molecule	Measurement Unit	Measured Result
N#CSc1c[nH]c2cccc(/C=C/C(=O)/C=C(O)/C=C/c3cccc4[nH]cc(SC#N)c34)c12	µM	1.93
Cc1c(Cl)ccc2[s+]snc12	µM	77.3
CCN(CC)c1ccc(C=C2C(=O)NC(=S)NC2=O)cc1	µM	7.05

### Prompt Given the molecule COC(=O)N1C=Cc2c(c(C)c3c([nH]c4ccccc43)c2C)C1C (configuration not stated) , what is its reported TGI?
### Response 34

### Prompt Same thing, different molecule: CN1CN(c2ccccc2)C2(CCN(CCCN(C)c3ccc(F)cc3)CC2)C1=O
### Response 33.5

### Prompt Another molecule to look at: C=C1C(=O)O[C@H]2[C@@H]3O[C@@](C)(CC/C=C(\C)CCC[C@@H]2C)[C@H](O)C[C@@H]13
### Response 27

### Prompt Field entry: NS(=O)(=O)c1ccc(NNc2c3ccccc3nc3c(C(=O)Nc4ccc(S(N)(=O)=O)cc4)cccc23)cc1
### Response 54.4
